The origin of these recorded values is paper PMC8972196.

Recorded measurements of IC50, one per entry
Target: human CCR7 (Homo sapiens)
Construct: expressed in transfected cells
Assay: CCL19-induced calcium mobilization assay, U87.CD4 cells expressing CCR7
Type: cell-based
Conditions: CCL19-induced calcium signaling; read-out: IC50 [μM] block CCL19 induced calcium signaling

smiles entry	IC50
CCNC(=O)c1cccc(NC(=O)CN(Cc2ccco2)C2CCCC2)c1	> 10 µM
COC(=O)c1sccc1Nc1c(NCc2ccc(Cl)cc2)c(=O)c1=O	> 50 µM
COC(=O)c1ccccc1Nc1c(NCc2ccc(OC)cc2)c(=O)c1=O	> 50 µM
COc1c(Nc2cc(C(F)(F)F)cc(C(F)(F)F)c2)c(=O)c1=O	> 30 µM
C[C@@H]1CCN(Cc2ccccc2)C[C@H]1Nc1nccc(C(N)=O)c1[N+](=O)[O-]	> 50 µM

* * *

Molecular target: human CCR7 (Homo sapiens, UniProt P32248)
Construct: expressed in transfected cells
Sequence (P32248 25-378): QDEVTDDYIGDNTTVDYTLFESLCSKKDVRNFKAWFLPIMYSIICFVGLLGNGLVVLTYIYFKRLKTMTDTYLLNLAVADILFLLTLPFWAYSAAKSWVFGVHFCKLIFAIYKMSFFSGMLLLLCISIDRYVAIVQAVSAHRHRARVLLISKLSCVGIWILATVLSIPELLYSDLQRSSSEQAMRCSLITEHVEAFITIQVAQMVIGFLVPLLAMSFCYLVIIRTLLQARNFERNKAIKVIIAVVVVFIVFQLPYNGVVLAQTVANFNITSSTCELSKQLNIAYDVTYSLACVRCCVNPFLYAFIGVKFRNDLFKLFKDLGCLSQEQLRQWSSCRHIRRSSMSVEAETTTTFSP
Assay: CCL19-induced calcium mobilization assay, U87.CD4 cells expressing CCR7
Format: cell-based
Conditions: CCL19-induced calcium signaling; read-out: IC50 [μM] block CCL19 induced calcium signaling
Recorded measurements of IC50, one per entry

compound	target or test system	IC50
Cc1ccc(CN(C(=O)CNc2ccc(C(N)=O)c(C)c2)C2CC2)o1	human CCR7 (Homo sapiens, UniProt P32248)	> 10 µM
CN(C)C(=O)c1cccc(NCC(=O)NCC2(c3ccccc3)CCC2)c1	human CCR7 (Homo sapiens, UniProt P32248)	> 10 µM
CC1CCCCN1C(=O)CNc1cc(C(=O)N(C)C)ccc1Cl (stereo not drawn)	human CCR7 (Homo sapiens, UniProt P32248)	> 10 µM
